pKi: −log10 of the molar value.
Entries below carry reported pKi on UniProt:P61169.
Sequence (P61169 whole entry): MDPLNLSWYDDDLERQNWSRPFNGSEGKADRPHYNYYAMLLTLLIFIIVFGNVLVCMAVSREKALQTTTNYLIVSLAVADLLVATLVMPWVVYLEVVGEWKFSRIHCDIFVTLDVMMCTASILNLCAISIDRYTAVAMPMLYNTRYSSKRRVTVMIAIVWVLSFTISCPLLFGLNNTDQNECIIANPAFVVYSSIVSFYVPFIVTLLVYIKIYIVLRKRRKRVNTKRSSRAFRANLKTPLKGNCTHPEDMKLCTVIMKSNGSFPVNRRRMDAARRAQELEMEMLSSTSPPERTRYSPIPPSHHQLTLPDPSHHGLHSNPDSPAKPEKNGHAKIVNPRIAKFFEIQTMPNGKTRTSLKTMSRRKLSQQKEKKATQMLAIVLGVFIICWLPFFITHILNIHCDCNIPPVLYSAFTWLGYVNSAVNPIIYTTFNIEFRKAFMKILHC
MEASURE NAME: pKi

[[record]]
molecule = "CN(C)CCCSc1ccccc1NC(=O)/C=C/c1ccccc1"
measure_name = "pKi"
limit_sign = "<"
result_value = 5.00

[[record]]
molecule = "O=C(O)c1ccccc1C(=O)Nc1cccc2ccccc12 [NPA,(+)]"
measure_name = "pKi"
limit_sign = "="
result_value = 8.32

